- METHOD_DESCRIPTION: Accelerated thermal stability assay, HP-SEC
- Type: physicochemical
- APPLIED_CONDITIONS: 4° C., 2 weeks, 1 mg/ml in PBS
METRIC_NAME: HP SEC % monomer (%)
Answers are plain numbers, in %.

# MOLECULE, UNIT_ABBREVIATION, HP SEC % monomer
data = [
    ("AB1370083: anti-FRα fully human IgG1 antibody; VH SEQ ID NO: 43, VL SEQ ID NO: 44 (antibody, V domains shown) VH: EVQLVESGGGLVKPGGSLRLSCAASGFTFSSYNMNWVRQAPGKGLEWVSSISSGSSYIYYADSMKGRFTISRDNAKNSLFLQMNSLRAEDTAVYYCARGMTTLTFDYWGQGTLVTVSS VL: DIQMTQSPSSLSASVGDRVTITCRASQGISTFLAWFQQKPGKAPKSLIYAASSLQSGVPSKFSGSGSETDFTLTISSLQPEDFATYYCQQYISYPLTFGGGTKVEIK", "%", 99.6),
]

Below are some molecules; for each one, tell me its HP SEC % monomer.
1. AB1370095: anti-FRα fully human IgG1 antibody; VH SEQ ID NO: 45, VL SEQ ID NO: 46 (antibody, V domains shown) VH: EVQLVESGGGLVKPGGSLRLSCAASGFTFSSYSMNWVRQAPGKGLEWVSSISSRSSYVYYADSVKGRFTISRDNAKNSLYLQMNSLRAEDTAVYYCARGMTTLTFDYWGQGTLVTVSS VL: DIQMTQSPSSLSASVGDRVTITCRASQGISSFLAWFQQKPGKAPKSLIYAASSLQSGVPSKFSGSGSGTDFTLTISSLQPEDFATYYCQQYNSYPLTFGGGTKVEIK
2. AB1370035: anti-FRα fully human IgG1 antibody; VH SEQ ID NO: 41, VL SEQ ID NO: 42 (antibody, V domains shown) VH: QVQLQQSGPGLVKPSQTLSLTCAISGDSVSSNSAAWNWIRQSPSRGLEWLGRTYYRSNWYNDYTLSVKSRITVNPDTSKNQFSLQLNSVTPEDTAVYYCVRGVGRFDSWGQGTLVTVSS VL: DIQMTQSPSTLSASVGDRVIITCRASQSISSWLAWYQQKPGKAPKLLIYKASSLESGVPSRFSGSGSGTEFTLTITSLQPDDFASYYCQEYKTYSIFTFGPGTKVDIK
3. AB1370026: anti-FRα fully human IgG1 antibody; VH SEQ ID NO: 39, VL SEQ ID NO: 40 (antibody, V domains shown) VH: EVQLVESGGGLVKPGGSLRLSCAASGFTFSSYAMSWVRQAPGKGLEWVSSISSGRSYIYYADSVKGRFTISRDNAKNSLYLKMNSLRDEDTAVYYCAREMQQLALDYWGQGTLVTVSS VL: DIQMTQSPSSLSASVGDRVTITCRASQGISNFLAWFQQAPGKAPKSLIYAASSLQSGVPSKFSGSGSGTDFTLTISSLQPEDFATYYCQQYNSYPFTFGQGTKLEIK

1: 99.2; 2: 100; 3: 100
